Sourced from the RNAGym collection of RNA variant scans (doi:10.7554/elife.90254)

B1: LINE1-full (parent)
chain: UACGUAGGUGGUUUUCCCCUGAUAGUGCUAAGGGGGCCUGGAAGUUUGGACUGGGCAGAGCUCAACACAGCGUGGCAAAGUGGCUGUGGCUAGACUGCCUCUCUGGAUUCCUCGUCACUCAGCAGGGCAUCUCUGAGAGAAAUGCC

# Variants of: B1
# ASSAY_METHOD_TEXT: self-cleavage, relative activity (ratio to wild type); higher = more cleavage; in vitro, sequencing; the parent is a self-cleaving ribozyme
Entries and their measured self-cleavage follow.
Give a plain numeric answer without units written out.

These recorded examples may help you get a feel for the data.
1. G33U A129G; 1.34
2. A22C A129G; 1.39
3. A65G A124U; 0.04
4. A43U A107U; 1.81
5. U15C C17U; 1.03
6. A2C C17G; 1.03
7. C19U A142G; 1.06
8. U102C A129G; 1.51
9. U87C C111U; 0.23
10. A59U A67G; 0.39

Look up self-cleavage for this variant: "G74U"
1.4

Look up self-cleavage for this variant: U20A C51U
0.77
